Measured values drawn from ChEMBL document CHEMBL1641471 for this set.

test-description: Cytotoxicity against human HepG2 cells assay at 40 uM after 72 hrs by Alamar Blue assay
Format: cell-based
condition-label: read-out: INH
measured-quantity: cytotoxicity at 72 h, 40 µM (%)
Please reply with the bare figure in % and do not write the unit itself.

Summary for this compound, COC1C(Br)=CO[C@@]2(C=C1Br)ON=C(C(=O)NCCCOc1c(Br)cc(CC[N+](C)(C)C)cc1Br)[C@@H]2O.O=C([O-])C(F)(F)F (stereo partly specified) : cytotoxicity at 72 h, 40 µM is 33

###

test-description: Cytotoxicity against HEK293 cells assay at 40 uM after 72 hrs by Alamar Blue assay
Assay type: cell-based
condition-label: human, read-out: INH
measured-quantity: cytotoxicity at 72 h, 40 µM (%)
Please reply with the bare figure in % and do not write the unit itself.

Summary for this molecule, COC1C(Br)=CO[C@@]2(C=C1Br)ON=C(C(=O)NCCCOc1c(Br)cc(CC[N+](C)(C)C)cc1Br)[C@@H]2O.O=C([O-])C(F)(F)F (stereo partly specified) [PSAMMAPLYSIN H] : cytotoxicity at 72 h, 40 µM is 35
